// data source = patent US12552825B2

- Tested on: K. pneumoniae MP-648
- experiment: MIC determination by CLSI broth dilution, K. pneumoniae MP-648
- Format: cell-based
- particulars: Klebsiella pneumoniae, MP648, CLSI broth dilution; strain MP-648
endpoint.name: MIC

Worked examples, 6 compounds total:
[[record]]
smiles_str = "CCN1C[C@H](C)C[C@@](C)(OC)[C@H](O[C@@H]2O[C@H](C)C[C@H](N(C)C)[C@H]2O)[C@@H](C)C(=O)C(C)(C)C(=O)OC[C@H]1C=C1CCN(C2Cc3ccccc3C2)CC1"
endpoint_name = "MIC"
result = "< 4 µg/mL"

[[record]]
smiles_str = "CCN1C[C@H](C)C[C@@](C)(OC)[C@H](O[C@@H]2O[C@H](C)C[C@H](N(C)C)[C@H]2O)[C@@H](C)C(=O)C(C)(C)C(=O)OC[C@H]1CCCN1CCCCC1"
endpoint_name = "MIC"
result = "< 4 µg/mL"

[[record]]
smiles_str = "CO[C@]1(C)C[C@@H](C)CN(C)[C@H](CCCN2CCC(F)CC2)COC(=O)C(C)(C)C(=O)[C@H](C)[C@H]1O[C@@H]1O[C@H](C)C[C@H](N(C)C)[C@H]1O"
endpoint_name = "MIC"
result = "< 4 µg/mL"

[[record]]
smiles_str = "CO[C@]1(C)C[C@@H](C)CN(C)[C@H]([C@@H](O)C2CCN(C(C)C)CC2)COC(=O)C(C)(C)C(=O)[C@H](C)[C@H]1O[C@@H]1O[C@H](C)C[C@H](N(C)C)[C@H]1O"
endpoint_name = "MIC"
result = "> 32 µg/mL"

[[record]]
smiles_str = "CCN1C[C@H](C)C[C@@](C)(OC)[C@H](O[C@@H]2O[C@H](C)C[C@H](N(C)C)[C@H]2O)[C@@H](C)C(=O)C(C)(C)C(=O)OC[C@H]1[C@H](O)CCN(C)C(C)C"
endpoint_name = "MIC"
result = "4 to 32 µg/mL"

[[record]]
smiles_str = "CO[C@]1(C)C[C@@H](C)CN(C)[C@H](CC2CCN(CCO)CC2)COC(=O)C(C)(C)C(=O)[C@H](C)[C@H]1O[C@@H]1O[C@H](C)C[C@H](N(C)C)[C@H]1O"
endpoint_name = "MIC"
result = "< 4 µg/mL"


// next item, MIC requested
Can you look up the measured MIC of CO[C@]1(C)C[C@@H](C)CN(CC(C)C)[C@@H](CCCN(C)C(C)C)COC(=O)C(C)(C)C(=O)[C@H](C)[C@H]1O[C@@H]1O[C@H](C)C[C@H](N(C)C)[C@H]1O for me?
4 to 32 µg/mL
